Settings: simulated gi fluid, pH 1.2
Where a SMILES comes first, the peptide text is derived from it.
RECORDED_ENDPOINT: t1/2 SGF

>>> readout_value("NC(=O)CC[C@@H]1NC(=O)[C@H](Cc2ccccc2)NC(=O)[C@H](Cc2ccc(O)cc2)NC(=O)[C@@H](N)CSSC[C@@H](C(=O)N2CCC[C@H]2C(=O)N[C@@H](CCCN=C(N)N)C(=O)NCC(N)=O)NC(=O)[C@H](CC(N)=O)NC1=O [Vasopressin, reference compound]")
">24 h"
>>> readout_value("C[C@@H]1NC(=O)[C@@H]2CCCN2C(=O)[C@H](CC(N)=O)NC(=O)[C@@H]2CSSC[C@H](N)C(=O)N[C@H]3CSSC[C@H](NC1=O)C(=O)N[C@@H]([C@@H](C)O)C(=O)NCC(=O)N[C@H](C(=O)N[C@@H](Cc1ccc(O)cc1)C(=O)O)CSSC[C@H](NC(=O)[C@H](Cc1ccc(O)cc1)NC(=O)[C@H](CCC(=O)O)NC3=O)C(=O)N2 [Linaclotide] (HELM PEPTIDE1{C.C.E.Y.C.C.N.P.A.C.T.G.C.Y}$PEPTIDE1,PEPTIDE1,1:R3-6:R3|PEPTIDE1,PEPTIDE1,2:R3-10:R3|PEPTIDE1,PEPTIDE1,5:R3-13:R3$$$V2.0)")
">24 h"
